Test system: Escherichia coli TOP10
Test: shrunken log2 fold change of peptide-encoding DNA abundance (4.5 h post-induction vs induction); higher = less antimicrobial activity (less host growth inhibition)
Cond: time post-induction: 4.5 h; library: site-saturation at positions 5, 18, 19, 20
For each record, write down the corresponding shrunken log2 fold change.
Please respond with just the number, no unit label.

Please give the measured shrunken log2 fold change for this sequence: RRIRPRPPRLPRPRPRPVQKPRP
0.0644

Given the sequence RRIRVRPPRLPRPRPRPFCTPRP , what is its reported shrunken log2 fold change?
-0.389

Given RRIRNRPPRLPRPRPRPHTEPRP , state its recorded shrunken log2 fold change.
0.0434

Report shrunken log2 fold change for RRIRKRPPRLPRPRPRPMNPPRP please.
0.0725

Reported shrunken log2 fold change, sequence RRIRGRPPRLPRPRPRPKPPPRP : ____
2.28

Which shrunken log2 fold change value belongs to RRIRIRPPRLPRPRPRPHNLPRP ?
-0.334

What shrunken log2 fold change value was documented for this sequence, RRIRCRPPRLPRPRPRPTRKPRP ?
-0.0442

# query: shrunken log2 fold change of entry RRIRCRPPRLPRPRPRPDAQPRP
0.456

// query shrunken log2 fold change value for entry RRIRWRPPRLPRPRPRPSRAPRP
0.397

Using the record for RRIRIRPPRLPRPRPRPMRYPRP , report its shrunken log2 fold change.
-0.176

If you can, please state the reported shrunken log2 fold change value of RRIRGRPPRLPRPRPRPMTCPRP .
0.133

# get_value(readout='shrunken log2 fold change', item= RRIRCRPPRLPRPRPRPYKYPRP )
-0.551

Quick check: shrunken log2 fold change of RRIRPRPPRLPRPRPRPREIPRP ?
0.44

Fill in the blank: the reported shrunken log2 fold change of RRIRMRPPRLPRPRPRPWVMPRP is ____.
-0.022

Quick one: shrunken log2 fold change of RRIRFRPPRLPRPRPRPFMIPRP ?
-0.456

Which measured shrunken log2 fold change value corresponds to RRIRERPPRLPRPRPRPDRHPRP ?
-0.0302

Would you kindly share the measured shrunken log2 fold change for RRIRIRPPRLPRPRPRPAIAPRP ?
-0.206

Request the reported shrunken log2 fold change associated with RRIRNRPPRLPRPRPRPGDWPRP
2.87

Which shrunken log2 fold change is listed for RRIRVRPPRLPRPRPRPNDKPRP ?
-0.351

I have this sequence here, RRIRMRPPRLPRPRPRPQQMPRP , and I need its recorded shrunken log2 fold change.
-0.0302

I'd like to know its shrunken log2 fold change. The sequence in question is RRIRHRPPRLPRPRPRPWPYPRP
-0.01

Sample RRIRKRPPRLPRPRPRPIEHPRP — what was its shrunken log2 fold change?
0.332

Would you kindly share the measured shrunken log2 fold change for RRIRARPPRLPRPRPRPKYYPRP ?
-0.179

What value of measured shrunken log2 fold change is listed for RRIRCRPPRLPRPRPRPNYHPRP ?
-0.93

Would you kindly share the measured shrunken log2 fold change for RRIRHRPPRLPRPRPRPWRCPRP ?
-0.221

Any idea what shrunken log2 fold change was measured for RRIRSRPPRLPRPRPRPVKGPRP ?
-0.0577

====

System: Escherichia coli TOP10
Test: shrunken log2 fold change of peptide-encoding DNA abundance (4.5 h post-induction vs induction); higher = less antimicrobial activity (less host growth inhibition)
Cond: time post-induction: 4.5 h; library: site-saturation at positions 5, 18, 19, 20
Parameter: shrunken log2 fold change
Give your answer as a number; write no unit.

# query: shrunken log2 fold change | item RRIRNRPPRLPRPRPRPFYTPRP | system: Escherichia coli TOP10
-1.29

Missing value: shrunken log2 fold change, Escherichia coli TOP10, entry RRIRIRPPRLPRPRPRPDFHPRP . Fill in?
-0.649

Lab note: need shrunken log2 fold change with Escherichia coli TOP10 for entry RRIRNRPPRLPRPRPRPEHHPRP , please look it up.
-0.114

Hello, I am looking for reported shrunken log2 fold change with Escherichia coli TOP10 for RRIRHRPPRLPRPRPRPYPEPRP . Could you help?
-0.267

Short answer please: shrunken log2 fold change, Escherichia coli TOP10, entry RRIRPRPPRLPRPRPRPSCCPRP
-0.0575

Hello, I am looking for reported shrunken log2 fold change with Escherichia coli TOP10 for RRIRHRPPRLPRPRPRPMTNPRP . Could you help?
-0.19

Short answer please: shrunken log2 fold change, Escherichia coli TOP10, entry RRIRTRPPRLPRPRPRPDIFPRP
-0.234

# returns recorded shrunken log2 fold change (system: Escherichia coli TOP10) for RRIRSRPPRLPRPRPRPSTSPRP
-0.455

Lab note: need shrunken log2 fold change for RRIRARPPRLPRPRPRPNIPPRP on Escherichia coli TOP10, anyone have it?
-0.223

Could you share what shrunken log2 fold change was measured for RRIRVRPPRLPRPRPRPAKIPRP , tested on Escherichia coli TOP10?
0.117

State its shrunken log2 fold change on Escherichia coli TOP10: RRIRWRPPRLPRPRPRPMQWPRP
0.379

Request: shrunken log2 fold change, test system Escherichia coli TOP10, entry RRIRIRPPRLPRPRPRPRDEPRP
0.27

Record RRIRVRPPRLPRPRPRPGHHPRP : what is its shrunken log2 fold change with Escherichia coli TOP10?
0.00137

Item: RRIRTRPPRLPRPRPRPVDMPRP Test system: Escherichia coli TOP10 Read-out: shrunken log2 fold change Value: ?
-0.238

State its shrunken log2 fold change on Escherichia coli TOP10: RRIRERPPRLPRPRPRPWANPRP
-0.0497

GET /values?readout=shrunken log2 fold change&system=Escherichia coli TOP10&item= RRIRERPPRLPRPRPRPQMVPRP
-0.0708

What value of shrunken log2 fold change on Escherichia coli TOP10 does RRIRHRPPRLPRPRPRPEASPRP have?
0.0128

Tell me reported shrunken log2 fold change for RRIRVRPPRLPRPRPRPPRKPRP , tested with Escherichia coli TOP10.
0.482

Find the measured shrunken log2 fold change: item RRIRGRPPRLPRPRPRPIEHPRP , target or system Escherichia coli TOP10.
0.125

Provide the documented shrunken log2 fold change with Escherichia coli TOP10 as the system for RRIRQRPPRLPRPRPRPGMSPRP
0.285

Record RRIRLRPPRLPRPRPRPPQCPRP : what is its shrunken log2 fold change with Escherichia coli TOP10?
-0.313

Could you share what shrunken log2 fold change was measured for RRIRSRPPRLPRPRPRPGHAPRP , tested on Escherichia coli TOP10?
0.205

Give Escherichia coli TOP10 shrunken log2 fold change for RRIRPRPPRLPRPRPRPNMAPRP
0.478

Missing value: shrunken log2 fold change, Escherichia coli TOP10, entry RRIRYRPPRLPRPRPRPSTLPRP . Fill in?
-0.853

Request: shrunken log2 fold change, test system Escherichia coli TOP10, entry RRIRHRPPRLPRPRPRPIGVPRP
0.148

Form: Entry = RRIRPRPPRLPRPRPRPEMRPRP | System = Escherichia coli TOP10 | shrunken log2 fold change = ____
0.329

Kindly state the measured shrunken log2 fold change obtained for RRIRKRPPRLPRPRPRPVYTPRP with Escherichia coli TOP10.
-0.356

# get_value(readout= shrunken log2 fold change, system= Escherichia coli TOP10) for RRIRHRPPRLPRPRPRPGSCPRP
-0.108

Entry RRIRWRPPRLPRPRPRPYWYPRP , system Escherichia coli TOP10: what shrunken log2 fold change was measured?
-1.33

Observed shrunken log2 fold change on Escherichia coli TOP10 for RRIRFRPPRLPRPRPRPHPAPRP , please.
0.0971

# query: shrunken log2 fold change | item RRIRARPPRLPRPRPRPRQWPRP | system: Escherichia coli TOP10
0.68

Fill in the recorded shrunken log2 fold change for this sequence, with Escherichia coli TOP10 as test system: RRIRCRPPRLPRPRPRPTEWPRP
0.063

Provide value of shrunken log2 fold change for this record tested with Escherichia coli TOP10: RRIRKRPPRLPRPRPRPSRPPRP
0.529

Request: shrunken log2 fold change, test system Escherichia coli TOP10, entry RRIRLRPPRLPRPRPRPIRRPRP
0.0431

Item: RRIRGRPPRLPRPRPRPSVVPRP Test system: Escherichia coli TOP10 Read-out: shrunken log2 fold change Value: ?
0.658

Tell me reported shrunken log2 fold change for RRIRCRPPRLPRPRPRPAIMPRP , tested with Escherichia coli TOP10.
-0.0676

Report shrunken log2 fold change for RRIRWRPPRLPRPRPRPSHYPRP tested on Escherichia coli TOP10.
-0.557

Report shrunken log2 fold change for RRIRWRPPRLPRPRPRPTVVPRP tested on Escherichia coli TOP10.
0.134

Lab note: need shrunken log2 fold change for RRIRRRPPRLPRPRPRPRHTPRP on Escherichia coli TOP10, anyone have it?
0.268

Give Escherichia coli TOP10 shrunken log2 fold change for RRIRMRPPRLPRPRPRPAERPRP
0.385

// lookup shrunken log2 fold change | system=Escherichia coli TOP10 | key= RRIRHRPPRLPRPRPRPEIAPRP
-0.0585

Any idea what shrunken log2 fold change came out for RRIRWRPPRLPRPRPRPISNPRP on Escherichia coli TOP10?
-0.0292

State its shrunken log2 fold change on Escherichia coli TOP10: RRIRSRPPRLPRPRPRPEGYPRP
-0.0595

Form field: shrunken log2 fold change recorded for RRIRPRPPRLPRPRPRPLYHPRP with Escherichia coli TOP10 (enter value)
-0.514

Form: Entry = RRIRGRPPRLPRPRPRPCGTPRP | System = Escherichia coli TOP10 | shrunken log2 fold change = ____;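 note: peptides expressed intracellularly from a pBAD plasmid library in pooled LB shake-flask culture, induced with 0.3% L-arabinose, DNA abundance read by NGS, three biological replicates, DESeq2 with apeglm shrinkage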
1.44

Can you look up shrunken log2 fold change on Escherichia coli TOP10 for RRIRERPPRLPRPRPRPTYVPRP ?
-0.132

Enter reported shrunken log2 fold change observed with Escherichia coli TOP10 for RRIRQRPPRLPRPRPRPRDLPRP
0.412

Reference source for all entries: the supplement of paper PMC9112550
